Reference source: ChEMBL document CHEMBL1157450

pIC50: −log10 of the molar value.
Recorded pIC50 values (Cytochrome P450 3A4 (Homo sapiens)) are given below.

{"columns": ["Compound", "pIC50"],
 "data": [
  ["CC(=O)Nc1ccc(-c2ccc(C(CN3CCOCC3)N(C)C(=O)CN3C(=O)COc4cc(C)c(C)cc43)cc2)cc1 (stereo not drawn)", 5.19],
  ["CN(C(=O)CN1C(=O)COc2cc(Cl)c(Cl)cc21)C(CN1CCOCC1)c1ccc(-c2ccccc2)cc1 (racemic)", 5.34],
  ["CN(C(=O)CN1C(=O)COc2cc(Cl)c(Cl)cc21)[C@H](CN1CCOCC1)c1ccc(-c2ccccc2)cc1", 5.38],
  ["CNC(=O)c1cccc(-c2ccc(C(CN3CCOCC3)N(C)C(=O)Cn3c(=O)cnc4cc(Cl)c(Cl)cc43)cc2)c1 (stereo not drawn)", 5.30],
  ["CN(CC(=O)N(C)C(CN1CCCC1)c1ccccc1)c1ccc(Cl)c(Cl)c1 (racemic)", 5.48],
  ["CN(C(=O)CN(CC#N)c1ccc(Cl)c(Cl)c1)C(CN1CCCC1)c1ccc(-c2cccc(C(N)=O)c2)cc1 (stereo not drawn)", 5.66],
  ["COCCN(CC(=O)N(C)C(CN1CCCC1)c1ccc(-c2ccc(C(N)=O)cc2)cc1)c1ccc(Cl)c(Cl)c1 (stereo not drawn)", 5.59],
  ["CN(C(=O)CN1C(=O)COc2cc(Cl)c(Cl)cc21)[C@@H](CN1CCOCC1)c1ccc(-c2ccccc2)cc1", 5.04]
]}
